- system.name: USP28 (His-tagged USP28-FL-mammalian) (Homo sapiens, UniProt Q96RU2)
- Construct: Expression of USP28 (1-1077)-TEV-6*His (pTT5 vector) was carried out in Expi293f cells
- Sequence (Q96RU2 whole entry): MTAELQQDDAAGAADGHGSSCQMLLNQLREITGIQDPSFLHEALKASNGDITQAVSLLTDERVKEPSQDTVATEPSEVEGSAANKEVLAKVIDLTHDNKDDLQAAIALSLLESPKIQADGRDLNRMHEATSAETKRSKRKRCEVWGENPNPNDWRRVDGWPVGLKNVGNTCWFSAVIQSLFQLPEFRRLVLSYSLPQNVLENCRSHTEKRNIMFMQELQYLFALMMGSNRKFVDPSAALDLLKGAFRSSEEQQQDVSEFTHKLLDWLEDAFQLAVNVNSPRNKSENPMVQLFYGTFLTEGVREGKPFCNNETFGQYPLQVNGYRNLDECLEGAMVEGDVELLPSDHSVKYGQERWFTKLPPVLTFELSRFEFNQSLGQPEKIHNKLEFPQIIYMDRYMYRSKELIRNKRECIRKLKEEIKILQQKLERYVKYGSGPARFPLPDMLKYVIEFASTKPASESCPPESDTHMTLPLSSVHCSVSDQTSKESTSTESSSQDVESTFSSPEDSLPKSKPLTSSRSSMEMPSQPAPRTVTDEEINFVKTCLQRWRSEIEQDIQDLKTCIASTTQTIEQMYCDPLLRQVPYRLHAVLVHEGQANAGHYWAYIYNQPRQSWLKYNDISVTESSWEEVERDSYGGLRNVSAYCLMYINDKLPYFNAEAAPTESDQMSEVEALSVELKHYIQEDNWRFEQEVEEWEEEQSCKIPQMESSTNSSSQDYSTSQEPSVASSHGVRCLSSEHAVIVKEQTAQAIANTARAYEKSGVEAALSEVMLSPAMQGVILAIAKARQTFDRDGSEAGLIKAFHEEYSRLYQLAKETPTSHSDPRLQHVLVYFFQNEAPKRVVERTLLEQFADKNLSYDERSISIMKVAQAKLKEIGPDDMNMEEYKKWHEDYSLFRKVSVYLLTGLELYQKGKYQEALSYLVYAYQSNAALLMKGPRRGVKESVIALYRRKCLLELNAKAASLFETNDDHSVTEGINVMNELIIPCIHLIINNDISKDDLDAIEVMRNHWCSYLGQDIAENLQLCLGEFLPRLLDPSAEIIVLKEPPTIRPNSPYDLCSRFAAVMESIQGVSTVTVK
- assay.notes: Ubiquitin-Rhodamine 110 Assay for USP28 Activity, Example A-1(a)
- condition.context: USP28, 75 pM enzyme, 25 nM Ub-Rh110, 1536-well, 30 min preincubation; read-out: Assay A-1(a) (IC50 range)

compound | IC50
CCn1ccc2cc(C(=O)NC[C@@H](C)c3cc(F)c(N4CC5CCC(C4)N5)cc3F)cnc21 (single isomer, unassigned) [Example 2-4] | 50 to 200 nM
O=C(NCCc1ccc(N2CCNCC2)cc1)c1cnc2[nH]cc(Cl)c2c1 [Example 3-2] | 200 to 2000 nM
CCn1ccc2cc(C(=O)NC[C@@H](C)c3cc(F)c(N4CCNCC4)cc3F)cnc21 (single isomer, unassigned) [Example 2-1] | 50 to 200 nM
CCn1ccc2cc(C(=O)NCCc3cc(F)c(N4CC5CCC(C4)N5)cc3F)cnc21 [Example 1-1] | 1 to 50 nM
CCn1ccc2cc(C(=O)NCCc3ccc(N4CCNCC4)cc3)cnc21 [Example 1-4] | 1 to 50 nM
O=C(NCCc1ccc(N2CCNCC2)cc1)c1cnc2c(ccn2CC(F)(F)F)c1 [Example 1-8] | 1 to 50 nM
CCn1ccc2cc(C(=O)NCCc3cc(F)c(N4CCNCC4)cc3F)cnc21 [Example 1-7] | 1 to 50 nM
CCn1cc(Cl)c2cc(C(=O)NCCc3cc(F)c(N4CC5CCC(C4)N5)cc3F)nnc21 [Example 4-4] | 1 to 50 nM
